Data provenance: paper PMC4132815

# TARGET UNDER TEST: CydDC (C-His6-CydDC) (Escherichia coli, UniProt P23886+P29018, P29018:INS2NS)
# Construct: full-length heterodimer (64 + 63 kDa); plasmid pHX100 in E. coli BL21
# ASSAY TEXT: stimulation of ATPase activity (colorimetric Pi release)
ASSAY READOUT: EC50 (µM)
Just the number please, in µM, no unit attached.

Problem: Item under review: `N[C@@H](CS)C(=O)O` . Reported EC50?
Result: 26
